Values were extracted from PubChem BioAssay (NCI).

In this section we review reported growth inhibition values for a set of molecules.
- measurement-notes: NCI Yeast Anticancer Drug Screen. Data for the sgs1 strain (AID 173);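 note: 0% = growth of vehicle-only control cultures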
- applied-conditions: S. cerevisiae sgs1 mutant, at 1.2 µM, active compounds read high
This is part of a sample that, as a whole, favours compounds with a hit. Of some 79,000 tested, about 15% had one in any assay.
The response must be a number in % with no trailing unit.

stdin: Determine from records and report growth inhibition for CC(C)c1[nH]nc(C(N)=O)c1N=NN(C)C
stdout: -2

New cases:
stdin: Determine from records and report growth inhibition for CC(=O)OCC1OC(O[C@H]2C=C[C@@H](C(=O)OCc3ccccc3)n3c(=O)n(-c4ccccc4)c(=O)n32)C(OC(C)=O)C(OC(C)=O)C1OC(C)=O (stereo not given in full)
stdout: -9

stdin: Determine from records and report growth inhibition for CCOC(=O)C1=C(C)NC(C)=C(C(=O)OCC)C1c1ccccc1Cl
stdout: 26

stdin: Determine from records and report growth inhibition for NC(N)=N/N=C/c1cc(Cl)cc(Cl)c1O
stdout: -12

stdin: Determine from records and report growth inhibition for CCOP1(=O)C=C(Sc2ccc([N+](=O)[O-])cc2[N+](=O)[O-])C(C)(C)O1 (stereo not given)
stdout: 3

stdin: Determine from records and report growth inhibition for CC(C)(O)c1ccccc1C(c1ccccc1)c1ccccc1
stdout: -6

stdin: Determine from records and report growth inhibition for C=C1N(C)c2ccc(Cl)cc2C1(C)C
stdout: -24

stdin: Determine from records and report growth inhibition for S=c1cn[nH]c2ccc(Br)cc12
stdout: -2

stdin: Determine from records and report growth inhibition for CC(=O)Oc1ccc(C(=O)c2ccccc2)c(O)c1
stdout: 6

stdin: Determine from records and report growth inhibition for CCCCC1=NNC(=O)C1
stdout: 10
